Data provenance is patent US20170100396A1.

# Test system: influenza A virus (IAV) A/Aichi/2/68 (H3N2)
# experiment-notes: microbe, parasite or virus in culture
# Format: cell-based, influenza A virus in MDCK cells
# test-context: Influenza A virus, H3N2, MDCK, 48 h, read-out: CPE IC50
pIC50: −log10 of the molar value.
pIC50 for assorted compounds

The following compounds have reported results that may help.
> print(dat)
                                   compound                               measured.on  reported.endpoint  measured.value
1  CC1(CNC(=O)c2c[nH]c3ncc(-c4ccccc4Cl)nc23)CCC(=O)N1 (stereo not drawn)  influenza A virus (IAV) A/Aichi/2/68 (H3N2)              pIC50          < 4.00
2  O=C(N[C@@H](C(=O)N1CCCC1)C1CC1)c1c[nH]c2ncc(C3CC3)nc12  influenza A virus (IAV) A/Aichi/2/68 (H3N2)              pIC50          < 4.60
3  O=C(N[C@@H](C(=O)NCCC(=O)N1CCS(=O)(=O)CC1)C1CC1)c1c[nH]c2ncc(C3CC3)nc12  influenza A virus (IAV) A/Aichi/2/68 (H3N2)              pIC50          < 4.00
4   COCCN(CCOC)C(=O)c1c[nH]c2ncc(C(C)C)nc12  influenza A virus (IAV) A/Aichi/2/68 (H3N2)              pIC50          < 4.00

The compound listed as O=C(N[C@@H](C(=O)NCc1ccccc1F)C1CC1)c1c[nH]c2ncc(C3CC3)nc12 has a reported pIC50 of 4.84

The compound listed as O=C(N[C@@H](C(=O)N1CC(F)(F)C1)C1CC1)c1c[nH]c2ncc(C3CC3)nc12 has a reported pIC50 of < 4.00

The compound listed as CC(C)C[C@@H](NC(=O)c1c[nH]c2ncc(C3CC3)nc12)C(=O)NC1CCCc2ccccc21 (stereo partly drawn) has a reported pIC50 of < 4.00

The compound listed as CC(C)C[C@@H](NC(=O)c1c[nH]c2ncc(C3CC3)nc12)C(=O)N1CC2(CN(C(=O)OC(C)(C)C)C2)C1 has a reported pIC50 of < 4.00

----------
pIC50 for assorted compounds
# Tested on: influenza A virus (IAV) A/Aichi/2/68 (H3N2)
# experiment-notes: microbe, parasite or virus in culture
# Format: cell-based, influenza A virus in MDCK cells
# test-context: Influenza A virus, H3N2, MDCK, 48 h, read-out: CPE IC50
Please treat pIC50 as minus the base-10 logarithm of the molar concentration.

The following compounds have reported results that may help.
> print(dat)
                                   compound  reported.endpoint  measured.value
1  COc1ccc(CNC(=O)[C@H](NC(=O)c2c[nH]c3ncc(C4CC4)nc23)C2CC2)cc1              pIC50            4.99
2  O=C(N[C@@H](C(=O)N1CCN(Cc2ccccc2)CC1)C1CC1)c1c[nH]c2ncc(C3CC3)nc12              pIC50            4.38
3  O=C(N[C@@H](C(=O)NCc1ccc(Cl)cc1Cl)C1CC1)c1c[nH]c2ncc(C3CC3)nc12              pIC50            4.95
4  O=C(N[C@@H](C(=O)NCc1ccc(F)cc1)C1CC1)c1c[nH]c2ncc(C3CC3)nc12              pIC50            4.79
5  O=C(N[C@@H](C(=O)NCc1ccc(Cl)c(Cl)c1)C1CC1)c1c[nH]c2ncc(C3CC3)nc12              pIC50            5.33
6  CC(C)c1cnc2[nH]cc(C(=O)NC(C)C(C)(C)O)c2n1 (centres unmarked)              pIC50            4.91
7  O=C(N[C@@H](C(=O)N1CCC[C@H](C(=O)N2CCCCC2)C1)C1CC1)c1c[nH]c2ncc(C3CC3)nc12              pIC50            4.48

Now take the following compound into account.
The compound listed as CC(C)c1cnc2[nH]cc(C(=O)NC3CCCCC3O)c2n1 (centres unmarked) has a reported pIC50 of 4.95
